Entries and their IC50 values follow.
Target: EGFR Del19/C797S (Homo sapiens, UniProt P00533, C797S/DEL746-750)
Sequence (P00533 with tags, fused parts or gaps DEL746-750/C797S): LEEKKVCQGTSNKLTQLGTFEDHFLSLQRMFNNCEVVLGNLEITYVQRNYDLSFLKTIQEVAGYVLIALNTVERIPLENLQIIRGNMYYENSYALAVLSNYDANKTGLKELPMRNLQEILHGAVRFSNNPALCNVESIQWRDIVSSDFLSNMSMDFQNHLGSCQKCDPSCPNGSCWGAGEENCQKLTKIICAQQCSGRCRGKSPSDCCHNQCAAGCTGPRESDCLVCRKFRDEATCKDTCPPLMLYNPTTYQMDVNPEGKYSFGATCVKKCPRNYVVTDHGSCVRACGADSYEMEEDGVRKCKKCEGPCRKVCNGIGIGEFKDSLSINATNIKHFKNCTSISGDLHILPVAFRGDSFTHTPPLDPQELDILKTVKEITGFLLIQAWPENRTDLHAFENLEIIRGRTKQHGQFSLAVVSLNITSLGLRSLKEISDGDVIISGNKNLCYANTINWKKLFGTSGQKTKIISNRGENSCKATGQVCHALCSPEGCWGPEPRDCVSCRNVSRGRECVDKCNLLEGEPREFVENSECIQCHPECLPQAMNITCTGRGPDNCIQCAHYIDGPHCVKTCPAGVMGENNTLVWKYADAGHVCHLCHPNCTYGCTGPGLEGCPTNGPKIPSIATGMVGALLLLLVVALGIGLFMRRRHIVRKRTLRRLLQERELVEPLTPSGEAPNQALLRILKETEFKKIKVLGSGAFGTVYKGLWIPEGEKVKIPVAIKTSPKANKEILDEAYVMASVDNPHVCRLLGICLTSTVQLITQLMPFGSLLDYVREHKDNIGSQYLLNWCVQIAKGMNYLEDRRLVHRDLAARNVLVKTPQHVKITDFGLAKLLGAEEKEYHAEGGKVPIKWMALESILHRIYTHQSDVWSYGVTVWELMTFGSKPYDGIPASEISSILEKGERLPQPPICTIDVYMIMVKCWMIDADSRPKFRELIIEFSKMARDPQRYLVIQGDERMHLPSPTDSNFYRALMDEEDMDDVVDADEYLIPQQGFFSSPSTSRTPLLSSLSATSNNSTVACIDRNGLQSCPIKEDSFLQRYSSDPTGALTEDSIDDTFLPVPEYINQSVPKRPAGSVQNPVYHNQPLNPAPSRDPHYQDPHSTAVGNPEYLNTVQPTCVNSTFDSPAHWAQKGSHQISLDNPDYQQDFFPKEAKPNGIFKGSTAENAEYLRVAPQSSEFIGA
Experiment: Biochemical EGFR kinase inhibition assay (Lance Ultra TR-FRET), double mutant del19/C797S
Conditions: IC50 Del19/C797S (nM), 100 μM ATP

Past entries and their recorded results:
In [3]: df
Out[3]:
                                   compound  resultvalue
0  CN1CCN(Cc2ccc(C#Cc3cnc(Nc4ccnc(-c5cnn(S(=O)(=O)C6CC6)c5)n4)cc3N[C@H]3CC[C@@H](CO)CC3)cc2)CC1       2.7 nM
1  O=S(=O)(C1CC1)n1cc(-c2nccc(Nc3cc(N[C@H]4CC[C@@H](O)CC4)c(C#Cc4cnn(C5CCOCC5)c4)cn3)n2)cn1       8.8 nM
2  O=S(=O)(C1CC1)n1cc(-c2nccc(Nc3cc(N[C@H]4CC[C@@H](O)CC4)c(C#Cc4ccsc4)cn3)n2)cn1      28.3 nM
3  CC1(CO)CCN(c2cc(Nc3ccnc(-c4cnn(S(=O)(=O)C5CC5)c4)n3)ncc2C#CCCF)CC1       1.3 nM
4  Cn1cc(C#Cc2cnc(Nc3ccnc(-c4cnn(S(=O)(=O)C5CC5)c4)n3)cc2N2CCC(OC(F)(F)F)CC2)cn1       181 nM

Prompt: Report IC50, nothing else, for this compound: CC1OCCC1C#Cc1cnc(Nc2ccnc(-c3cnn(S(=O)(=O)C4CC4)c3)n2)cc1N1CCC(C)(CO)CC1 (stereo not drawn)
Response: 3.3 nM

----------
Target: EGFR Del19/C797S (Homo sapiens, UniProt P00533, C797S/DEL746-750)
Experiment: Biochemical EGFR kinase inhibition assay (Lance Ultra TR-FRET), double mutant del19/C797S
Conditions: Km ATP; read-out: IC50 Del19/C797S (nM), Km ATP
Description: Biochemical EGFR kinase assays were conducted using Lance Ultra time-resolved fluorescence resonance energy transfer (TR-FRET) technology from Perkin-Elmer. […] Each kinase reactions were incubated at room temperature for 1 hour and then stopped by the addition of 4 μL of stop solution (10 mM EDTA). […] After 60 minutes incubation at room temperature the LANCE signal was measured on an EnVision Multilabel Reader (Perkin-Elmer). […]
Could you mark each record y if its IC50 falls strictly under 2 nM, and n if it equals or exceeds it?

Take a look at these entries with their results.
compound	label
O=S(=O)(C1CC1)n1cc(-c2nccc(Nc3cc(N4CCC(F)(CO)CC4)c(C#Cc4cnn(C(F)(F)F)c4)cn3)n2)cn1 [Example 338]	n
CC1(CO)CCN(c2cc(Nc3ccnc(N4CCN(S(=O)(=O)C5CC5)CC4)n3)ncc2C#Cc2cnn(C(F)(F)F)c2)CC1 [Example 449]	n
O=S(=O)(C1CC1)n1cc(-c2nccc(Nc3cc(N[C@H]4CC[C@@H](CO)CC4)c(C#CC4C[C@@H]5CC[C@@H]4O5)cn3)n2)cn1 (some centres unmarked) [Example 422]	n
CC1(CO)CCN(c2cc(Nc3ccnc(-c4cnn(S(=O)(=O)C5CC5)c4)n3)ncc2C#CC2CCO[C@H]2C(F)(F)F)CC1 (some centres unmarked) [Example 421]	n
C[C@]1(O)CC[C@@H](Nc2cc(Nc3ccnc(-c4cnn(S(=O)(=O)C5CC5)c4)n3)ncc2C#Cc2cnn(CC(F)(F)F)c2)CC1 [Example 344]	n

Prompt: A record lists CS(=O)(=O)N1CCC(C#Cc2cnc(Nc3ccnc(-c4cnn(S(=O)(=O)C5CC5)c4)n3)cc2NC2CCC(CO)CC2)C1 (centres unmarked) [Example 397] . Is its IC50 below 2 nM?
Response: y

Prompt: Does this compound meet the criterion IC50 < 2 nM? CC1(C#Cc2cnc(Nc3ccnc(-c4cnn(S(=O)(=O)C5CC5)c4)n3)cc2N[C@H]2CC[C@@H](CO)CC2)CC1 [Example 402]
Response: n

Prompt: Strictly below 2 nM: is that where IC50 of O=S(=O)(C1CC1)n1cc(-c2nccc(Nc3cc(NC4CCC(CO)CC4)c(C#CC4(F)CCOC4)cn3)n2)cn1 (centres unmarked) [Example 434] sits?
Response: n

Prompt: Field: below-cutoff. Rule: recorded IC50 strictly less than 2 nM. Subject: CS(=O)(=O)N1CCC(C#Cc2cnc(Nc3ccnc(-c4cnn(S(=O)(=O)C5CC5)c4)n3)cc2N[C@H]2CC[C@@H](CO)CC2)CC1 [Example 387]
Response: y

Prompt: Please check: IC50 for COC1(O)CCN(c2cc(Nc3ccnc(-c4cnn(S(=O)(=O)C5CC5)c4)n3)ncc2C#CC2CCN(C)C2)CC1 (centres unmarked) [Example 371] , strictly under 2 nM or not?
Response: y

Prompt: I wonder whether CC1(CO)CCN(c2cc(Nc3ccnc(-c4cnn(S(=O)(=O)C5CC5)c4)n3)ncc2C#CC2(O)CCOC2)CC1 (centres unmarked) [Example 355] has IC50 below 2 nM. Can you tell?
Response: y

Prompt: # TODO verify IC50 < 2 nM strictly for this compound: CN(C)CCC1CCN(c2cc(Nc3ccnc(-c4cnn(S(=O)(=O)C5CC5)c4)n3)ncc2C#Cc2cnn(CC(F)(F)F)c2)CC1 [Example 349]
Response: n

Prompt: Quick check: does CN1CCC(C#Cc2cnc(Nc3ccnc(-c4cnn(S(=O)(=O)C5CC5)c4)n3)cc2N2CCC3(CCO3)CC2)C1 (centres unmarked) [Example 373] have IC50 under 2 nM?
Response: y

Prompt: Say whether its IC50 is strictly beneath 2 nM. Entry: CC1OCCC1C#Cc1cnc(Nc2ccnc(-c3cnn(S(=O)(=O)C4CC4)c3)n2)cc1N1CCC(C)(CO)CC1 (centres unmarked) [Example 438]
Response: y

Prompt: Say whether its IC50 is strictly beneath 2 nM. Entry: O=S(=O)(C1CC1)n1cc(-c2nccc(Nc3cc(N4CCC[C@H](O)C4)c(C#Cc4cnn(C(F)(F)F)c4)cn3)n2)cn1 [Example 439]
Response: n

Prompt: hey, is IC50 for O=S(=O)(C1CC1)n1cc(-c2nccc(Nc3cc(N[C@H]4CC[C@@H](CO)CC4)c(C#Cc4cnn(C(F)(F)F)c4)cn3)n2)cn1 [Example 336] lower than 2 nM or not?
Response: n

Prompt: For this compound, is IC50 lower than 2 nM? CS(=O)(=O)N1CCC(C#Cc2cnc(Nc3ccnc(-c4cnn(S(=O)(=O)C5CC5)c4)n3)cc2NC2CCC(O)CC2)C1 (centres unmarked) [Example 399]
Response: y

Prompt: Consider the compound O=S(=O)(C1CC1)n1cc(-c2nccc(Nc3cc(N[C@H]4CC[C@@H](CO)CC4)c(C#Cc4cnn(CC(F)(F)F)c4)cn3)n2)cn1 [Example 340] . Is its IC50 strictly less than 2 nM?
Response: n

Prompt: Given the entry O=S(=O)(C1CC1)n1cc(-c2nccc(Nc3cc(NC4CCC(O)CC4)c(C#CC4CCCO4)cn3)n2)cn1 (centres unmarked) [Example 376] , would its reported IC50 be below 2 nM?
Response: y

Prompt: State whether 2 nM exceeds IC50 recorded for O=S(=O)(C1CC1)n1cc(-c2nccc(Nc3cc(NC4CCC(O)CC4)c(C#CC4(F)CCOC4)cn3)n2)cn1 (centres unmarked) [Example 436] .
Response: y

Prompt: # strict comparison: is reported IC50 < 2 nM? input = CC1(CO)CCN(c2cc(Nc3ccnc(-c4cnn(S(=O)(=O)C5CC5)c4)n3)ncc2C#CC2CCN(S(=O)(=O)C3CC3)C2)CC1 (centres unmarked) [Example 395]
Response: n

Prompt: Bench note: check whether CC1(CO)CCN(c2cc(Nc3ccnc(-c4cnn(S(=O)(=O)C5CC5)c4)n3)ncc2C#CC2CCS(=O)(=O)C2)CC1 (centres unmarked) [Example 437] shows IC50 below 2 nM
Response: y

Prompt: Is IC50 of CC1(O)CCN(c2cc(Nc3ccnc(-c4cnn(S(=O)(=O)C5CC5)c4)n3)ncc2C#CC2CCO[C@H]2C(F)(F)F)CC1 (some centres unmarked) [Example 417] strictly below 2 nM?
Response: n

Prompt: Hello, I'm reviewing records and need to know if IC50 of O=S(=O)(C1CC1)n1cc(-c2nccc(Nc3cc(N[C@H]4CC[C@@H](O)CC4)c(C#CC4COC4)cn3)n2)cn1 [Example 353] is below 2 nM. Could you check?
Response: y

Prompt: Report whether reported IC50 is lower than 2 nM (strictly) for O=S1(=O)CCC(C#Cc2cnc(Nc3ccnc(-c4cnn(S(=O)(=O)C5CC5)c4)n3)cc2NC2CCC(CO)CC2)C1 (centres unmarked) [Example 428]
Response: n

Prompt: Could you please tell me whether IC50 recorded for CS(=O)(=O)N1CCC(C#Cc2cnc(Nc3ccnc(-c4cnn(S(=O)(=O)C5CC5)c4)n3)cc2NC[C@H]2CC[C@H](CO)CC2)CC1 [Example 388] is less than 2 nM?
Response: n

----------
Target: EGFR Del19/T790M/C797S (Homo sapiens, UniProt P00533, C797S/DEL746-750/T790M)
Sequence (P00533 with tags, fused parts or gaps DEL746-750/T790M/C797S): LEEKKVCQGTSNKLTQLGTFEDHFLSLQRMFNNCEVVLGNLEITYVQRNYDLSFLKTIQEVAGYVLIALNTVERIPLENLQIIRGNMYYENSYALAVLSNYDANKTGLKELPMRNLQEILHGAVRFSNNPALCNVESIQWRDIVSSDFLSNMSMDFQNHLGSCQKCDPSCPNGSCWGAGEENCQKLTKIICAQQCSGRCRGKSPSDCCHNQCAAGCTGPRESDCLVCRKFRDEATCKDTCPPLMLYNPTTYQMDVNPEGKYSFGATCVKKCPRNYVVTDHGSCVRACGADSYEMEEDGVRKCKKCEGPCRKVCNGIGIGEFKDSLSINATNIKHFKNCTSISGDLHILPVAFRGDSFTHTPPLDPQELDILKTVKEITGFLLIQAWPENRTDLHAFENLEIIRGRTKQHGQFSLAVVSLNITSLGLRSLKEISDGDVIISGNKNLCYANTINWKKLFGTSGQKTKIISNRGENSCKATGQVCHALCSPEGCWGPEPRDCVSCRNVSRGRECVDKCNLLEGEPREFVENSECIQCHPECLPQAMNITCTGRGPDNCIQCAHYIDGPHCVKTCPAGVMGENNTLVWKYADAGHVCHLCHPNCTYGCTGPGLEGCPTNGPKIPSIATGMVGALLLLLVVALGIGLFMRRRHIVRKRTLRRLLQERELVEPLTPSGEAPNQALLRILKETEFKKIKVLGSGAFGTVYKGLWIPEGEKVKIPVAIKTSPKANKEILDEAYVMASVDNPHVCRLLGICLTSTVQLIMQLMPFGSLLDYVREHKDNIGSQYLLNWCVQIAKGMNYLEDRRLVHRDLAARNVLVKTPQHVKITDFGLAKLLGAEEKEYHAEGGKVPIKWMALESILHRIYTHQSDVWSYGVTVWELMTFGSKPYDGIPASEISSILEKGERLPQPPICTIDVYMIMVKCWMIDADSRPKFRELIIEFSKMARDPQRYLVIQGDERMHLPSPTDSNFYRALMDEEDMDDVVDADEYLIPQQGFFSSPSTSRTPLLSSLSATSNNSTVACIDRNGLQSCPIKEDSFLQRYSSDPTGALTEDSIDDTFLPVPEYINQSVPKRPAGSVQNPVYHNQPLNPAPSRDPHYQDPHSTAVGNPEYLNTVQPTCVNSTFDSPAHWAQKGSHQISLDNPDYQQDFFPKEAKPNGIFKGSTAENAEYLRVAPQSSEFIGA
Experiment: Biochemical EGFR kinase inhibition assay (Lance Ultra TR-FRET), triple mutant del19/T790M/C797S
Details: ATP at Km; read-out: IC50 Del19/T790M/C797S (nM), Km ATP
Measured IC50 by item
Numbers only; they are read as nM.

In [3]: df
Out[3]:
                                   molecule  metricname  resultvalue
0  CN(C)C[C@H]1CC[C@@H](Nc2cc(Nc3ccnc(-c4cnn(S(=O)(=O)C5CC5)c4)n3)ncc2C#Cc2cnn(C(F)(F)F)c2)CC1 [Example 314]        IC50          0.7
1  CN(C)CC1CCN(c2cc(Nc3ccnc(-c4cnn(S(=O)(=O)C5CC5)c4)n3)ncc2C#Cc2cnn(CC(F)F)c2)CC1 [Example 301]        IC50          0.6

Prompt: Please give the documented IC50 of CC1(CO)CCN(c2cc(Nc3ccnc(-c4cnn(S(=O)(=O)C5CC5)c4)n3)ncc2C#Cc2cnn(C3COC3)c2)CC1 [Example 245]
Response: 0.8

Prompt: Look up IC50 of CC1(CO)CCN(c2cc(Nc3ccnc(-c4cnn(S(=O)(=O)C5CC5)c4)n3)ncc2C#Cc2cnn3c2CN(CC(F)F)CC3)CC1 [Example 151] and report it.
Response: 2.4

Prompt: Tell us which IC50 value is on record for CC1(CO)CCN(c2cc(Nc3ccnc(-c4cnn(S(=O)(=O)C5CC5)c4)n3)ncc2C#Cc2ccc(CN3CCOCC3)s2)CC1 [Example 191]
Response: 3

Prompt: Give reported IC50 value for CN(C)CCC1CCN(c2cc(Nc3ccnc(-c4cnn(S(=O)(=O)C5CC5)c4)n3)ncc2C#Cc2cnn(CC(F)F)c2)CC1 [Example 303]
Response: 0.1
